Values compiled from patent US5789431A.

- Tested on: BT-549
- assay.summary: in vitro breast cancer cell growth inhibition (NCI screen)
satisfied means recorded cytotoxicity log GI50 is -5 M or above; not satisfied means it is below -5 M.

[[record]]
smiles_structure = "COc1cc(OC)cc(C(=O)NC2=C(Cl)C(=O)c3ccccc3C2=O)c1"
measured_on = "BT-549"
class_label = "not satisfied"

[[record]]
smiles_structure = "O=C(NC1=C(Cl)C(=O)c2ccccc2C1=O)c1ccccc1"
measured_on = "BT-549"
class_label = "satisfied"

[[record]]
smiles_structure = "COC(=O)CCCC(=O)NC1=C(Nc2ccc(OC)cc2)C(=O)c2ccccc2C1=O"
measured_on = "BT-549"
class_label = "satisfied"

[[record]]
smiles_structure = "COC(=O)CCCC(=O)NC1=C(NCc2ccccc2)C(=O)c2ccccc2C1=O"
measured_on = "BT-549"
class_label = "satisfied"

[[record]]
smiles_structure = "COc1ccc(C(=O)NC2=C(Cl)C(=O)c3ccccc3C2=O)cc1"
measured_on = "BT-549"
class_label = "not satisfied"


Turning now to a further compound:
Prompt: Could you tell me if the measured cytotoxicity log GI50 of CCc1nc2c(n1CC)C(=O)c1ccccc1C2=O reaches -5 M or more?
Response: satisfied

----------
- Tested on: OVCAR-8
- assay.summary: in vitro ovarian cancer cell growth inhibition (NCI screen)
value.type: cytotoxicity log GI50 (M)
Reply with just the number (in M).

Take a look at these entries with their results.
[[record]]
molecule = "CCn1c(-c2ccccc2)nc2c1C(=O)c1ccccc1C2=O [Compound 25]"
recorded_number = -4.85

[[record]]
molecule = "CCNC1=C(NC(=O)c2ccc(F)cc2)C(=O)c2ccccc2C1=O [Compound 48]"
recorded_number = -4.49

[[record]]
molecule = "CCn1c(C)nc2c1C(=O)c1ccccc1C2=O [Compound 5]"
recorded_number = -6.31

[[record]]
molecule = "CC(=O)NC1=C(NCCCl)C(=O)c2ccccc2C1=O [Compound 43]"
recorded_number = -4.70

[[record]]
molecule = "O=C(Cc1ccc(F)cc1)NC1=C(Cl)C(=O)c2ccccc2C1=O [Compound 2j]"
recorded_number = -5.71


Prompt: Which cytotoxicity log GI50 reading was recorded for the molecule Cc1nc2c(n1Cc1ccc(Cl)cc1)C(=O)c1ccccc1C2=O [Compound 20] ?
Response: -5.05

Prompt: Look up cytotoxicity log GI50: CCNC1=C(NC(=O)c2ccc(OC)cc2)C(=O)c2ccccc2C1=O [Compound 49]
Response: -4.61

Prompt: # input molecule: Cc1ccc(Cn2c(C)nc3c2C(=O)c2ccccc2C3=O)cc1 [Compound 17] ; wanted: its cytotoxicity log GI50
Response: -5.52

Prompt: I am curious: what cytotoxicity log GI50 value has been reported for NC1=C(NC(=O)Cc2ccc(F)cc2)C(=O)c2ccccc2C1=O [Compound 3c] ?
Response: -4.47

----------
Below: a set of entries, each annotated with reported cytotoxicity log GI50.
- Tested on: U 251
- assay.summary: in vitro CNS cancer cell growth inhibition (NCI screen)
Please respond with the number in M and leave the unit unwritten.

[[record]]
compound = "CC(=O)NC1=C(NCCN(C)C)C(=O)c2ccccc2C1=O"
measured_on = "U 251"
value_type = "cytotoxicity log GI50"
recorded_number = -4.99

[[record]]
compound = "COc1ccc(C(=O)NC2=C(Cl)C(=O)c3ccccc3C2=O)cc1"
measured_on = "U 251"
value_type = "cytotoxicity log GI50"
recorded_number = -5.83

[[record]]
compound = "CCCC(C)n1c(C)nc2c1C(=O)c1ccccc1C2=O (stereo not drawn)"
measured_on = "U 251"
value_type = "cytotoxicity log GI50"
recorded_number = -4.91

[[record]]
compound = "Cc1nc2c(n1CCCl)C(=O)c1ccccc1C2=O"
measured_on = "U 251"
value_type = "cytotoxicity log GI50"
recorded_number = -4.90


// moving on: another record for cytotoxicity log GI50
Prompt: Value lookup for cytotoxicity log GI50; key = Cc1nc2c(n1Cc1ccc(F)cc1)C(=O)c1ccccc1C2=O
Response: -5.18

----------
- Tested on: 786-0
- assay.summary: in vitro renal cancer cell growth inhibition (NCI screen)
value.type: cytotoxicity log GI50

# count of solved cases: 2
[[record]]
compound = "CC(=O)NC1=C(NCC(C)C)C(=O)c2ccccc2C1=O [Compound 31]"
result = "-4.84 M"

[[record]]
compound = "Cc1nc2c(n1Cc1ccc(F)cc1)C(=O)c1ccccc1C2=O [Compound 19]"
result = "-4.88 M"


Prompt: Tell me the measured cytotoxicity log GI50 of COc1ccc(Cn2c(C)nc3c2C(=O)c2ccccc2C3=O)cc1 [Compound 18] , please.
Response: -5.27 M

Prompt: cytotoxicity log GI50 for NC1=C(NC(=O)Cc2ccccc2F)C(=O)c2ccccc2C1=O [Compound 3b] ?
Response: -4.57 M

Prompt: Query (compound): CC(=O)NC1=C(NC(C)(C)C)C(=O)c2ccccc2C1=O [Compound 32] ; field requested: cytotoxicity log GI50
Response: -5.47 M

----------
- System: UACC-257
- assay.summary: in vitro melanoma cell growth inhibition (NCI screen)
# cytotoxicity log GI50 >= -5 M gives True, anything below gives False

Use these answered entries as a reference point.
[[record]]
compound = "CC(=O)NC1=C(NCC(C)C)C(=O)c2ccccc2C1=O"
measured_on = "UACC-257"
class_label = "True"

[[record]]
compound = "CCn1c(-c2ccccc2)nc2c1C(=O)c1ccccc1C2=O"
measured_on = "UACC-257"
class_label = "False"

[[record]]
compound = "CCNC1=C(NC(=O)c2ccc(OC)cc2)C(=O)c2ccccc2C1=O"
measured_on = "UACC-257"
class_label = "True"

[[record]]
compound = "COc1ccc(C(=O)NC2=C(Cl)C(=O)c3ccccc3C2=O)cc1"
measured_on = "UACC-257"
class_label = "False"

[[record]]
compound = "COC(=O)CCC(=O)NC1=C(NCc2ccccc2)C(=O)c2ccccc2C1=O"
measured_on = "UACC-257"
class_label = "True"


Prompt: State whether the measured cytotoxicity log GI50 reaches -5 M, counting equality as reaching it, for Cc1nc2c(n1C(C)(C)C)C(=O)c1ccccc1C2=O
Response: True

Prompt: // inclusive: cytotoxicity log GI50 at least -5 M? input: CCNC1=C(NC(=O)CC)C(=O)c2ccccc2C1=O
Response: True

----------
- Test system: SN12C
- assay.summary: in vitro renal cancer cell growth inhibition (NCI screen)
value.type: cytotoxicity log GI50 (M)
// units = M; emit number, no label

Known cytotoxicity log GI50 results, listed for orientation:
[[record]]
compound = "CC(=O)NC1=C(NCCN(C)C)C(=O)c2ccccc2C1=O [Compound 39]"
measured_on = "SN12C"
recorded_number = -4.98

[[record]]
compound = "CCc1nc2c(n1CC)C(=O)c1ccccc1C2=O [Compound 23]"
measured_on = "SN12C"
recorded_number = -4.56


Prompt: Fill in: cytotoxicity log GI50 of CC(=O)NC1=C(NCC(C)C)C(=O)c2ccccc2C1=O [Compound 31] is ___
Response: -4.77

Prompt: Quick one: cytotoxicity log GI50 of CCC(c1ccc(F)cc1)c1nc2c(n1CC)C(=O)c1ccccc1C2=O (stereo not drawn) [Compound 65] ?
Response: -4.90

Prompt: Which cytotoxicity log GI50 reading was recorded for the compound CCNC1=C(NC(=O)CCl)C(=O)c2ccccc2C1=O [Compound 44] ?
Response: -4.75

Prompt: What value of cytotoxicity log GI50 has been recorded for this entry: Cc1nc2c(n1C(C)(C)C)C(=O)c1ccccc1C2=O [Compound 8]
Response: -4.30

----------
- Test system: K-562
- assay.summary: in vitro leukemia cell growth inhibition (NCI screen)
value.type: cytotoxicity log GI50 (M)
Answer with a number only, understood to be in M.

[[record]]
compound = "CCC(CC)n1c(C)nc2c1C(=O)c1ccccc1C2=O"
measured_on = "K-562"
endpoint_unit = "M"
recorded_number = -4.68

[[record]]
compound = "COc1ccc(CNC2=C(NC(C)=O)C(=O)c3ccccc3C2=O)cc1"
measured_on = "K-562"
endpoint_unit = "M"
recorded_number = -5.11

[[record]]
compound = "COc1ccc(Cn2c(C)nc3c2C(=O)c2ccccc2C3=O)cc1"
measured_on = "K-562"
endpoint_unit = "M"
recorded_number = -5.49

[[record]]
compound = "CCCC(C)n1c(C)nc2c1C(=O)c1ccccc1C2=O (stereo not drawn)"
measured_on = "K-562"
endpoint_unit = "M"
recorded_number = -5.07

[[record]]
compound = "CC(=O)NC1=C(NCC(C)(C)C)C(=O)c2ccccc2C1=O"
measured_on = "K-562"
endpoint_unit = "M"
recorded_number = -4.42

[[record]]
compound = "Cc1nc2c(n1CCC(C)C)C(=O)c1ccccc1C2=O"
measured_on = "K-562"
endpoint_unit = "M"
recorded_number = -5.09

[[record]]
compound = "CCC(C)(C)NC1=C(NC(C)=O)C(=O)c2ccccc2C1=O"
measured_on = "K-562"
endpoint_unit = "M"
recorded_number = -4.68

[[record]]
compound = "Cc1nc2c(n1CCO)C(=O)c1ccccc1C2=O"
measured_on = "K-562"
endpoint_unit = "M"
recorded_number = -4.59

[[record]]
compound = "CC(=O)NC1=C(NCc2ccc(Cl)cc2)C(=O)c2ccccc2C1=O"
measured_on = "K-562"
endpoint_unit = "M"
recorded_number = -5.61

[[record]]
compound = "Cc1nc2c(n1CC(C)C)C(=O)c1ccccc1C2=O"
measured_on = "K-562"
endpoint_unit = "M"
recorded_number = -4.52


Prompt: Short answer please: cytotoxicity log GI50, K-562, entry CC(=O)NC1=C(NCCN(C)C)C(=O)c2ccccc2C1=O
Response: -4.91

Prompt: Item Cc1nc2c(n1Cc1ccc(F)cc1)C(=O)c1ccccc1C2=O with K-562 - cytotoxicity log GI50?
Response: -5.25

Prompt: I'm curious: which cytotoxicity log GI50 was measured for CCC(C)NC1=C(NC(C)=O)C(=O)c2ccccc2C1=O (stereo not drawn) tested on K-562?
Response: -4.36

Prompt: So what cytotoxicity log GI50 did Cc1nc2c(n1CCCl)C(=O)c1ccccc1C2=O get with K-562?
Response: -4.80

Prompt: Find cytotoxicity log GI50 (K-562) for the entry Cc1nc2c(n1CC(C)(C)C)C(=O)c1ccccc1C2=O
Response: -4.25
